Entries and their BMC10 any morphological effect or mortality
Test system: Danio rerio embryo
Test: BMC10 any morphological effect or mortality at 120 hpf; higher = less toxic
Outcome Measure: BMC10 any morphological effect or mortality

>  <Compound>
CC(=O)CCCCn1c(=O)c2c(ncn2C)n(C)c1=O

>  <Measurement>
> 100 µM

$$$$
>  <Compound>
CC1(C)[C@@H](O[C@H]2O[C@H](C(=O)O)[C@@H](O)[C@H](O)[C@H]2O[C@@H]2O[C@H](C(=O)O)[C@@H](O)[C@H](O)[C@H]2O)CC[C@]2(C)[C@H]3C(=O)C=C4[C@@H]5C[C@@](C)(C(=O)O)CC[C@]5(C)CC[C@@]4(C)[C@]3(C)CC[C@@H]12.N

>  <Measurement>
> 100 µM

$$$$
>  <Compound>
CC(=O)Oc1ccccc1C(=O)Nc1ncc([N+](=O)[O-])s1 [Nitazoxanide]

>  <Measurement>
44.9 µM

$$$$
>  <Compound>
C=CCc1ccc(O)c(-c2ccc(O)c(CC=C)c2)c1

>  <Measurement>
5.7 µM

$$$$
>  <Compound>
Cc1cc(C#N)cc(C)c1Oc1nc(Nc2ccc(C#N)cc2)nc(N)c1Br

>  <Measurement>
> 100 µM

$$$$
>  <Compound>
CCCOCCCCCCCCCC(=O)O

>  <Measurement>
> 100 µM

$$$$
>  <Compound>
COc1c(O)cc2c(c1O)[C@@H]1O[C@H](CO)[C@@H](O)[C@H](O)[C@H]1OC2=O

>  <Measurement>
> 100 µM

$$$$
>  <Compound>
COc1ccc2c(O[C@@H]3C[C@H]4C(=O)N[C@]5(C(=O)NS(=O)(=O)C6CC6)C[C@H]5/C=C\CCCCN(C)C(=O)[C@@H]4C3)cc(-c3nc(C(C)C)cs3)nc2c1C.[Na]

>  <Measurement>
3.6 µM

$$$$
>  <Compound>
C[C@@]1(O)[C@H](O)[C@@H](CO)O[C@H]1n1ccc(N)nc1=O

>  <Measurement>
> 100 µM

$$$$
>  <Compound>
C[C@@H]1CCO[C@H]2Cn3cc(C(=O)NCc4ccc(F)cc4F)c(=O)c(O)c3C(=O)N12

>  <Measurement>
> 100 µM

$$$$
>  <Compound>
C=CC(=O)N1CC/C(=C\c2ccc(F)c([N+](=O)[O-])c2)C(=O)/C(=C/c2ccc(F)c([N+](=O)[O-])c2)C1

>  <Measurement>
1.26 µM

$$$$
>  <Compound>
CC(C)(C)NC(=O)[C@@H]1CN(Cc2cccnc2)CCN1C[C@@H](O)C[C@@H](Cc1ccccc1)C(=O)N[C@H]1c2ccccc2C[C@H]1O.O=S(=O)(O)O

>  <Measurement>
> 100 µM

$$$$
>  <Compound>
CC1(C)C=Cc2c(ccc3c2OC[C@@H](c2ccc(O)cc2O)C3)O1

>  <Measurement>
3.57 µM

$$$$

###

Test system: Danio rerio embryo
Assay: BMC10 any morphological effect or mortality at 120 hpf; higher = less toxic
Outcome Measure: BMC10 any morphological effect or mortality

>  <Compound>
c1ccc(CNc2nc(NCc3ccccc3)c3ccccc3n2)cc1 [DBeQ]

>  <Experimental System>
Danio rerio embryo

>  <Measurement>
1.15 µM

$$$$
>  <Compound>
O=c1c(O[C@@H]2O[C@H](CO)[C@@H](O)[C@H](O)[C@H]2O)c(-c2ccc(O)c(O)c2)oc2cc(O)cc(O)c12 [Isoquercetin]

>  <Experimental System>
Danio rerio embryo

>  <Measurement>
> 100 µM

$$$$
>  <Compound>
O[C@H]1[C@@]2([H])[C@](CC[C@]2([H])[C@@](O)(C)CC/C=C(C)/C)(C)[C@]3(C)CC[C@]4([H])[C@@](CC[C@H](O[C@]5([H])O[C@H](CO)[C@@H](O)[C@H](O)[C@H]5O)C4(C)C)(C)[C@@]3([H])C1 [20(R)-Ginsenoside Rh2]

>  <Experimental System>
Danio rerio embryo

>  <Measurement>
> 100 µM

$$$$
>  <Compound>
C[C@@H]1CCN(C(=O)CC#N)C[C@@H]1N(C)c1ncnc2[nH]ccc12.O=C(O)CC(O)(CC(=O)O)C(=O)O [Tofacitinib]

>  <Experimental System>
Danio rerio embryo

>  <Measurement>
> 100 µM

$$$$
>  <Compound>
O=C1C=CC[C@@H]2[C@H]3CCCN4CCC[C@@H](CN12)[C@@H]34 [Sophocarpine]

>  <Experimental System>
Danio rerio embryo

>  <Measurement>
> 100 µM

$$$$
>  <Compound>
Cc1cc(C)nc(NS(=O)(=O)c2ccc(NC(=S)NC(=O)COc3ccc(Br)cc3Cl)cc2)n1 [ZCL 278]

>  <Experimental System>
Danio rerio embryo

>  <Measurement>
> 100 µM

$$$$
